// reported log10 Ki per item
# tested-on: UniProtKB Q92731
# Sequence (Q92731 whole entry): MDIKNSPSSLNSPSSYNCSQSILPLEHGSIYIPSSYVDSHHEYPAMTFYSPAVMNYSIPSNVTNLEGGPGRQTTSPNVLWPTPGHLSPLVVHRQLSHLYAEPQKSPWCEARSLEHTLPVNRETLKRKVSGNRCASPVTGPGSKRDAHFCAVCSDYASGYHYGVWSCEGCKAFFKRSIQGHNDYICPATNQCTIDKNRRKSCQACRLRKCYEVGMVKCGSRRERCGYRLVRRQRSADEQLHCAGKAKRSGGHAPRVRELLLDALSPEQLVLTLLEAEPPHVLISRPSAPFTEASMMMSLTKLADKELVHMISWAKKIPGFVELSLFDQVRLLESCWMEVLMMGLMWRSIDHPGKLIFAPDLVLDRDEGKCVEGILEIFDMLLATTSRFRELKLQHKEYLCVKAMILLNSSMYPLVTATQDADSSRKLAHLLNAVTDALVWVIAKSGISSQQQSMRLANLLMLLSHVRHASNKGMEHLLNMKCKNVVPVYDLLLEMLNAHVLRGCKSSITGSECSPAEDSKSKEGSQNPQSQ
# assay-overview: Displacement of [3H]estradiol from human recombinant ERbeta
quantity-measured: log10 Ki (log10 of the value in nM)

> print(dat)
                                   compound         tested.on  quantitative.result
1  CS(=O)(=O)C1CC=C(c2ccc3cc(O)ccc3c2Oc2ccc(OCCN3CCCCC3)cc2)CC1 (configuration not stated)  UniProtKB Q92731                 0.43
2  CC(C)S(=O)(=O)c1ccc(-c2ccc3cc(O)ccc3c2Oc2ccc(OCCN3CCCCC3)cc2)cc1  UniProtKB Q92731                 0.34
3  CCS(=O)(=O)c1ccc(-c2sc3cc(O)ccc3c2Oc2ccc(OCCN3CCCCC3)cc2)cc1  UniProtKB Q92731                 1.20
4  CCS(=O)(=O)c1ccc(-c2ccc3cc(O)ccc3c2Oc2ccc(OCCN3CCCCC3)cc2)cc1  UniProtKB Q92731                 0.62
5  CC(C)c1ccc(-c2sc3cc(O)ccc3c2Oc2ccc(OCCN3CCCCC3)cc2)cc1  UniProtKB Q92731                -0.20
6  CN(C)S(=O)(=O)c1ccc(-c2ccc3cc(O)ccc3c2Oc2ccc(OCCN3CCCCC3)cc2)cc1  UniProtKB Q92731                 0.23
7  Oc1ccc(-c2ccc3cc(O)ccc3c2Oc2ccc(OCCN3CCCCC3)cc2)cc1  UniProtKB Q92731                -0.32
